B1: library; a variant is named by its letters at N, in order (parent)
chain: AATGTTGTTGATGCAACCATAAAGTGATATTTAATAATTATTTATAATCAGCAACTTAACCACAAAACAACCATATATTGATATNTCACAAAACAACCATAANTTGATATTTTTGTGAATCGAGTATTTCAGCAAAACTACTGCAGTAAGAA

Variants of: B1
ASSAY: relative integration efficiency (T-RL orientation) vs wild-type transposon end (log2 (normalized fold change)); transposon end mutated: left end; higher = more efficient transposition
CONDITION LABEL: with VchCAST RNA-guided transposition machinery (E. coli BL21(DE3) host, lacZ target)
Would you mind labelling by relative integration efficiency (log2)? At or over -0.2 is 1, under is 0.

A selection of reference data follows.
(Q) Would you say CG A2C T3G G4T T5G shows relative integration efficiency (log2) at minimum -0.2?
(A) 0

(Q) Would you say TA A16C G24T T30A T76A A77G C87T A96C T110A T113A shows relative integration efficiency (log2) at minimum -0.2?
(A) 1

(Q) Would you say CG T12C shows relative integration efficiency (log2) at minimum -0.2?
(A) 1

(Q) Would you say CG T78G shows relative integration efficiency (log2) at minimum -0.2?
(A) 1

(Q) Would you say TG A22T G24T T31C A33C A70C T76A T84A C87A shows relative integration efficiency (log2) at minimum -0.2?
(A) 0

(Q) Would you say CA T104G T113A shows relative integration efficiency (log2) at minimum -0.2?
(A) 0

(Q) Would you say CG C98A A99C shows relative integration efficiency (log2) at minimum -0.2?
(A) 0

(Q) Would you say CG A16C C17A C18A A19C shows relative integration efficiency (log2) at minimum -0.2?
(A) 0

(Q) Would you say CG T114A G115C shows relative integration efficiency (log2) at minimum -0.2?
(A) 0

(Q) Would you say CG A96G shows relative integration efficiency (log2) at minimum -0.2?
(A) 0

More entries:
(Q) Would you say CG T12G shows relative integration efficiency (log2) at minimum -0.2?
(A) 0

(Q) Would you say CG T8G T9G shows relative integration efficiency (log2) at minimum -0.2?
(A) 0

Entry source: the supplement of paper PMC10201428
